// IC50 lookup, one value per entry
- EXPERIMENTAL_SYSTEM: Poly [ADP-ribose] polymerase 1 (Homo sapiens, UniProt P09874)
- Sequence (P09874 whole entry): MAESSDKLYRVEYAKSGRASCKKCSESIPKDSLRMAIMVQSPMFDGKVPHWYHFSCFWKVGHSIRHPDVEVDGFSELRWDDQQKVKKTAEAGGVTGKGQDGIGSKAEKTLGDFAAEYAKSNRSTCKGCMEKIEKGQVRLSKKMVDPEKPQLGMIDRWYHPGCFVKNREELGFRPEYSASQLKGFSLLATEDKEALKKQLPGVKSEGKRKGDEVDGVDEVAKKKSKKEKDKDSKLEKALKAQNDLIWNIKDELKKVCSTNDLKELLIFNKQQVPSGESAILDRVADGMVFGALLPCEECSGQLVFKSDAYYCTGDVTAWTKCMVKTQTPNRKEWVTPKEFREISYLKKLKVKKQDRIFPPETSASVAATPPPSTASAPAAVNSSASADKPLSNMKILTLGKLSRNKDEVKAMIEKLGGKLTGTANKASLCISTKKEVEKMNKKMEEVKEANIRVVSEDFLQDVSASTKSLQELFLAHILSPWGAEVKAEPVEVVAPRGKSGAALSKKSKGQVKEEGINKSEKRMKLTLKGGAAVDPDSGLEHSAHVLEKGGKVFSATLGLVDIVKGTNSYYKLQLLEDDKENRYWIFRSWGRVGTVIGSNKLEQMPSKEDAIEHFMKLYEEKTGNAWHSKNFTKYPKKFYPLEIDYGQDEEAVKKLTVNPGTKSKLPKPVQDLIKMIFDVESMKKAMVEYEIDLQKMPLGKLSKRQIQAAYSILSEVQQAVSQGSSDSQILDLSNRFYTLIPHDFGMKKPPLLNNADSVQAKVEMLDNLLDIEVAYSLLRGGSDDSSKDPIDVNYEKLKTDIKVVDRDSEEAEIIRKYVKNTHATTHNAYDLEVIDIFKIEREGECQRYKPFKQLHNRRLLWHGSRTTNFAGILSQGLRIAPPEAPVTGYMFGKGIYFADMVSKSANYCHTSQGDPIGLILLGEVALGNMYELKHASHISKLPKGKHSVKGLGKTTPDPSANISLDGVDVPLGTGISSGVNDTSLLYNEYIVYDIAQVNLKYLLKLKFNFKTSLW
- EXPERIMENT_NOTES: Inhibition of PARP1 (unknown origin) incubated for 1 hr by ELISA analysis
Just the number in nM, nothing appended.

These solved cases illustrate the format of a correct answer.
CC1CN(C(=O)c2cc(Cc3n[nH]c(=O)c4ccccc34)ccc2F)Cc2nnc(-c3cccs3)n21 (configuration not stated); 0.7
CC1CN(C(=O)c2cc(Cc3n[nH]c(=O)c4ccccc34)ccc2F)Cc2nnc(-c3c[nH]cn3)n21 (configuration not stated); 13.1
Cc1c(Cc2ccc(F)c(C(=O)N3Cc4nnc(-c5ccccn5)n4C(C)C3)c2)n[nH]c(=O)c1C (configuration not stated); 61.3
CC1CN(C(=O)c2cc(Cc3ccc(=O)[nH]n3)ccc2F)Cc2nnc(-c3ccccn3)n21 (configuration not stated); 947
CC1CN(C(=O)c2cc(Cc3n[nH]c(=O)c4ccccc34)ccc2F)Cc2nnc(-c3cnccn3)n21 (configuration not stated); 4

// lookup IC50 | system=Poly [ADP-ribose] polymerase 1 (Homo sapiens, UniProt P09874) | key= CC1CN(C(=O)c2cc(Cc3n[nH]c(=O)c4ccccc34)ccc2F)Cc2nnc(-c3cnn(C)c3)n21 (configuration not stated) 2.8

Next up: CC1CN(C(=O)c2cc(Cc3n[nH]c(=O)c4ccccc34)ccc2F)Cc2nncn21 (configuration not stated) 9.4

====

// IC50 lookup, one value per entry
- EXPERIMENTAL_SYSTEM: Poly [ADP-ribose] polymerase 1 (Homo sapiens, UniProt P09874)
- EXPERIMENT_NOTES: Inhibition of PARP1 (unknown origin) incubated for 1 hr by ELISA analysis

CC1CN(C(=O)c2cc(Cc3n[nH]c(=O)c4ccccc34)ccc2F)Cc2nnc(CCl)n21 (stereo not drawn); < 0.3 nM

Look at this compound and give its reported IC50. CC1(C)Cn2nncc2CN1C(=O)c1cc(Cc2n[nH]c(=O)c3ccccc23)ccc1F > 1000 nM

Next up: CC1Cn2nncc2CN1C(=O)c1cc(Cc2n[nH]c(=O)c3ccccc23)ccc1F (stereo not drawn) > 1000 nM

====

- EXPERIMENTAL_SYSTEM: Poly [ADP-ribose] polymerase 1 (Homo sapiens)
- EXPERIMENT_NOTES: Inhibition of PARP1 (unknown origin) incubated for 1 hr by ELISA analysis
Label scheme, based on IC50: band A = under 4 nM, band B = from 4 nM up to 20 nM, band C = 20 nM and over

Past entries and their recorded results:
Cc1cc(Cc2ccc(F)c(C(=O)N3Cc4nnc(-c5ccccn5)n4C(C)C3)c2)n[nH]c1=O (stereo not given); band C
CC1CN(C(=O)c2cc(Cc3n[nH]c(=O)c4ccccc34)ccc2F)Cc2nnc(-c3ccsc3)n21 (stereo not given); band A
CC1CN(C(=O)c2cc(Cc3n[nH]c(=O)c4ccccc34)ccc2F)Cc2nnc(CO)n21 (stereo not given); band B
CC1CN(C(=O)c2cc(Cc3n[nH]c(=O)c4ccccc34)ccc2F)Cc2nnc(CN(C)C)n21 (stereo not given); band B
CC1CN(C(=O)c2cc(Cc3n[nH]c(=O)c4ccccc34)ccc2F)Cc2nnc(C3COC(C)(C)O3)n21 (stereo not given); band C
CC1CN(C(=O)c2cc(COc3ccccc3C(N)=O)ccc2F)Cc2nnc(-c3ccccn3)n21 (stereo not given); band C
O=C(c1cc(Cc2n[nH]c(=O)c3ccccc23)ccc1F)N1CCc2ccccc2C1C1CC1 (stereo not given); band C
CC1CN(C(=O)c2cc(Cc3n[nH]c(=O)c4ccccc34)ccc2F)Cc2nnc(-c3nccn3C)n21 (stereo not given); band B

Class? Entry: CC1CN(C(=O)c2cc(Cc3n[nH]c(=O)c4ccccc34)ccc2F)Cc2nnc(-c3ncc[nH]3)n21 (stereo not given) band A

Next up: CC1CN(C(=O)c2cc(Cc3n[nH]c(=O)c4ccccc34)ccc2F)Cc2nnc(-c3ccco3)n21 (stereo not given) band A

Next up: COc1ccc2c(c1)C(C)N(C(=O)c1cc(Cc3n[nH]c(=O)c4ccccc34)ccc1F)CC2 (stereo not given) band C

Next up: CC1CN(C(=O)c2cc(Cc3n[nH]c(=O)c4ccccc34)ccc2F)Cc2nnc(C3CC3)n21 (stereo not given) band A

Next up: CC1CN(C(=O)c2cc(Cc3n[nH]c(=O)c4ccccc34)ccc2F)Cc2nnc(C(F)F)n21 (stereo not given) band B

These data points were gathered from ChEMBL document CHEMBL5625224.
